Test system: HCI-010 (organoid from a breast cancer xenograft)
ASSAY DETAILS: CTG-3D luminescence at 96 h relative to day-0 seeding control (ratio to day 0); higher = more growth / less cytotoxicity; PDxO 3D drug screen, 96 h, CTG-3D normalised to day-0 seeding control.
STATED CONDITIONS: 625 fM; days in culture: 52
CTG-3D luminescence at 96 h values, listed per item

{"SMI": "CC1(C)CCC(c2ccc(Cl)cc2)=C(CN2CCN(c3ccc(C(=O)NS(=O)(=O)c4ccc(N[C@H](CCN5CCOCC5)CSc5ccccc5)c(S(=O)(=O)C(F)(F)F)c4)cc3)CC2)C1", "CTG-3D luminescence at 96 h": 2.13}
{"SMI": "CC(=O)O[C@H]1C(=O)[C@@]2(C)[C@H]([C@H](OC(=O)c3ccccc3)[C@]3(O)C[C@H](OC(=O)[C@H](O)[C@@H](NC(=O)c4ccccc4)c4ccccc4)C(C)=C1C3(C)C)[C@]1(OC(C)=O)CO[C@@H]1C[C@@H]2O", "CTG-3D luminescence at 96 h": 2.28}

stdin: Value lookup for CTG-3D luminescence at 96 h; key = `C=CCn1c(=O)c2cnc(Nc3ccc(N4CCN(C)CC4)cc3)nc2n1-c1cccc(C(C)(C)O)n1`
stdout: 2.17

###

Test system: HCI-017.E2 (organoid from an ER-positive breast cancer xenograft)
ASSAY DETAILS: CTG-3D luminescence at 96 h relative to day-0 seeding control (ratio to day 0); higher = more growth / less cytotoxicity; PDxO 3D drug screen, 96 h, CTG-3D normalised to day-0 seeding control.
STATED CONDITIONS: 0.00025 µM; days in culture: 85
MEASURED METRIC: CTG-3D luminescence at 96 h

Look over these answered cases.
{"COMPOUND": "Cc1cc(Nc2ncnc3ccc(NC4=NC(C)(C)CO4)cc23)ccc1Oc1ccn2ncnc2c1 [tucatinib]", "SYSTEM UNDER TEST": "HCI-017.E2", "CTG-3D luminescence at 96 h": 3.33}
{"COMPOUND": "O=C(c1ccc(F)c(F)c1Nc1ccc(I)cc1F)N1CC(O)([C@@H]2CCCCN2)C1 [cobimetinib]", "SYSTEM UNDER TEST": "HCI-017.E2", "CTG-3D luminescence at 96 h": 2.34}
{"COMPOUND": "C/C=C1\\NC(=O)[C@H]2CSSCC/C=C/[C@H](CC(=O)N[C@H](C(C)C)C(=O)N2)OC(=O)[C@H](C(C)C)NC1=O [romidepsin]", "SYSTEM UNDER TEST": "HCI-017.E2", "CTG-3D luminescence at 96 h": 2.08}

stdin: Consider the compound CC(=O)O[C@H]1C(=O)[C@@]2(C)[C@H]([C@H](OC(=O)c3ccccc3)[C@]3(O)C[C@H](OC(=O)[C@H](O)[C@@H](NC(=O)c4ccccc4)c4ccccc4)C(C)=C1C3(C)C)[C@]1(OC(C)=O)CO[C@@H]1C[C@@H]2O [paclitaxel] and give its measured CTG-3D luminescence at 96 h.
stdout: 1.88

stdin: Try the compound O=C(O)C1(C(=O)O)CCC1.[NH2-].[NH2-].[Pt+2] [carboplatin]
stdout: 2.47

stdin: Subsequent entry: `CC(C)(C(=O)NCC(F)(F)C(F)(F)F)C(=O)N[C@@H]1C(=O)Nc2ccccc2-c2ccccc21`
stdout: 2.8

stdin: Input CC(C)n1nc(-c2ccc3oc(N)nc3c2)c2c(N)ncnc21 [sapanisertib]
stdout: 2.53

###

System: HCI-001 (organoid from a triple-negative breast cancer xenograft)
ASSAY DETAILS: CTG-3D luminescence at 96 h relative to day-0 seeding control (ratio to day 0); higher = more growth / less cytotoxicity; PDxO 3D drug screen, 96 h, CTG-3D normalised to day-0 seeding control.
STATED CONDITIONS: 0.1 µM; days in culture: 269
Would you please tag the item met when its CTG-3D luminescence at 96 h is 1 or above, and not met when it is below?

Reference set (4 entries):
{"COMPOUND": "CC(C)n1nc(-c2ccc3oc(N)nc3c2)c2c(N)ncnc21 [sapanisertib]", "ASSIGNED CATEGORY": "not met"}
{"COMPOUND": "CC1(C)CCC(c2ccc(Cl)cc2)=C(CN2CCN(c3ccc(C(=O)NS(=O)(=O)c4ccc(N[C@H](CCN5CCOCC5)CSc5ccccc5)c(S(=O)(=O)C(F)(F)F)c4)cc3)CC2)C1 [navitoclax]", "ASSIGNED CATEGORY": "met"}
{"COMPOUND": "CNC(=O)c1cccc(-c2ccc3c(N4CCOC[C@@H]4C)nc(N4CCOC[C@@H]4C)nc3n2)c1 [vistusertib]", "ASSIGNED CATEGORY": "met"}
{"COMPOUND": "CS(=O)(=O)c1ccc(C(=O)Nc2ccc(Cl)c(-c3ccccn3)c2)c(Cl)c1 [vismodegib]", "ASSIGNED CATEGORY": "met"}

API: the following record is the query input.
stdin: Confirm if CTG-3D luminescence at 96 h reported for the compound CC(=O)O[C@H]1C(=O)[C@@]2(C)[C@H]([C@H](OC(=O)c3ccccc3)[C@]3(O)C[C@H](OC(=O)[C@H](O)[C@@H](NC(=O)c4ccccc4)c4ccccc4)C(C)=C1C3(C)C)[C@]1(OC(C)=O)CO[C@@H]1C[C@@H]2O [paclitaxel] is 1 or above.
stdout: not met

###

Test system: HCI-008 (organoid from a HER2-enriched breast cancer xenograft)
ASSAY DETAILS: CTG-3D luminescence at 96 h relative to day-0 seeding control (ratio to day 0); higher = more growth / less cytotoxicity; PDxO 3D drug screen (set 2), 96 h, CTG-3D normalised to day-0 seeding control.
STATED CONDITIONS: 625 fM; days in culture: 382
// values below are reported CTG-3D luminescence at 96 h
Respond numerically, and do not add a unit to the figure.

Would you please look over these solved cases?
{"MOLECULE": "Cc1c(CN2CCN(C(=O)[C@H](C)O)CC2)sc2c(N3CCOCC3)nc(-c3cnc(N)nc3)nc12 [apitolisib]", "MEASURED METRIC": "CTG-3D luminescence at 96 h", "NUMERIC READOUT": 1.49}
{"MOLECULE": "CO[C@H]1C[C@@H]2CC[C@@H](C)[C@@](O)(O2)C(=O)C(=O)N2CCCC[C@H]2C(=O)O[C@H]([C@H](C)C[C@@H]2CC[C@@H](O)[C@H](OC)C2)CC(=O)[C@H](C)/C=C(\\C)[C@@H](O)[C@@H](OC)C(=O)[C@H](C)C[C@H](C)/C=C/C=C/C=C/1C [rapamycin]", "MEASURED METRIC": "CTG-3D luminescence at 96 h", "NUMERIC READOUT": 1.24}
{"MOLECULE": "O=C(c1cc(Cc2n[nH]c(=O)c3ccccc23)ccc1F)N1CCN(C(=O)C2CC2)CC1 [olaparib]", "MEASURED METRIC": "CTG-3D luminescence at 96 h", "NUMERIC READOUT": 1.8}

Please examine the following record next.
stdin: Missing value: CTG-3D luminescence at 96 h, HCI-008, entry C[C@@H](Nc1cc(F)cc(F)c1)c1cc(C(=O)N(C)C)cc2c(=O)cc(N3CCOCC3)oc12 [AZD-8186] . Fill in?
stdout: 1.86

###

Test system: HCI-023 (organoid from a triple-negative breast cancer xenograft)
ASSAY DETAILS: CTG-3D luminescence at 96 h relative to day-0 seeding control (ratio to day 0); higher = more growth / less cytotoxicity; PDxO 3D drug screen, 96 h, CTG-3D normalised to day-0 seeding control.
STATED CONDITIONS: 625 fM; days in culture: 128
MEASURED METRIC: CTG-3D luminescence at 96 h
Reply briefly: the number, and no unit.

Here are 5 compounds together with their reported answers.
{"SMI": "CNC(=O)c1cccc(-c2ccc3c(N4CCOC[C@@H]4C)nc(N4CCOC[C@@H]4C)nc3n2)c1", "MEASURED METRIC": "CTG-3D luminescence at 96 h", "NUMERIC READOUT": 1.7}
{"SMI": "CCN(c1cc(C#CCN2CCOCC2)cc(C(=O)NCc2c(C)cc(C)[nH]c2=O)c1C)[C@H]1CC[C@H](N(C)CCOC)CC1", "MEASURED METRIC": "CTG-3D luminescence at 96 h", "NUMERIC READOUT": 1.5}
{"SMI": "CS(=O)(=O)c1ccc(C(=O)Nc2ccc(Cl)c(-c3ccccn3)c2)c(Cl)c1", "MEASURED METRIC": "CTG-3D luminescence at 96 h", "NUMERIC READOUT": 1.67}
{"SMI": "NC1(C(=O)N[C@@H](CCO)c2ccc(Cl)cc2)CCN(c2nc[nH]c3nccc2-3)CC1", "MEASURED METRIC": "CTG-3D luminescence at 96 h", "NUMERIC READOUT": 1.75}
{"SMI": "Cc1nc(-c2cn3c(n2)-c2ccc(-c4cnn(C(C)(C)C(N)=O)c4)cc2OCC3)n(C(C)C)n1", "MEASURED METRIC": "CTG-3D luminescence at 96 h", "NUMERIC READOUT": 1.86}

Below: the item to evaluate.
stdin: So what does the record say about CTG-3D luminescence at 96 h for `C[C@H](NC(=O)CCC(F)(F)F)C(=O)N[C@@H]1C(=O)N(CCO)c2ncccc2-c2ccccc21` ?
stdout: 1.53
